Data provenance is patent US8623911B2.

- runDescription: Pharmacokinetic studies in mice (plasma and brain, IV and oral gavage)
- Format: in vivo, male CD-1 mice
- runConditions: male, CD-1, mouse; brain; IV 2 mg/kg; last = 12 hours; read-out: Exposure/trapezoid AUC0-last
measuredParameter: AUC(0-t) (ng·h/mL)
The response must be a number in ng·h/mL with no trailing unit.

Problem: // AUC(0-t) lookup, key: O=C(Nc1ccc2c(c1)B(O)OCC2)c1ccc(F)cc1C(F)(F)F
Solution: 700

###

- runDescription: Pharmacokinetic studies in mice (plasma and brain, IV and oral gavage)
- Format: in vivo, male CD-1 mice
- runConditions: male, CD-1, mouse; plasma; IV 2 mg/kg; read-out: Exposure/trapezoid AUC0-inf
- Method: Male CD-1 mice weighing approximately 20 to 30 g received the test article M1 by either intravenous (IV) or oral gavage (OG) routes. Animals in the IV group (11 animals, 1 per time point) received a single bolus injection at a nominal dose level of 2 mg/kg of the test article. Animals receiving oral doses were administered the test article as a single OG dose (10 animals per dose level, 1 per time point) at nominal dose levels of 25 and 50 mg/kg. […]
measuredParameter: AUC(0-inf) (ng·h/mL)
Field: numeric (ng·h/mL). Do not append units.

Problem: Request the reported AUC(0-inf) associated with O=C(Nc1ccc2c(c1)B(O)OCC2)c1ccc(F)cc1C(F)(F)F
Solution: 1610

###

- runDescription: Pharmacokinetic studies in mice (plasma and brain, IV and oral gavage)
- Assay type: in vivo, male CD-1 mice
- runConditions: mouse; brain; oral 50 mg/kg; male CD-1 mice
- Description: Male CD-1 mice weighing approximately 20 to 30 g received the test article M1 by either intravenous (IV) or oral gavage (OG) routes. Animals in the IV group (11 animals, 1 per time point) received a single bolus injection at a nominal dose level of 2 mg/kg of the test article. Animals receiving oral doses were administered the test article as a single OG dose (10 animals per dose level, 1 per time point) at nominal dose levels of 25 and 50 mg/kg. […]
measuredParameter: Cmax (ng/mL)
Unit ng/mL implied. Number only.

Problem: What value of measured Cmax is listed for O=C(Nc1ccc2c(c1)B(O)OCC2)c1ccc(F)cc1C(F)(F)F [M1] ?
Solution: 4210

###

- runDescription: Pharmacokinetic studies in mice (plasma and brain, IV and oral gavage)
- Type: in vivo, male CD-1 mice
- runConditions: male, CD-1, mouse; brain; oral 50 mg/kg; last = 12 hours; read-out: Exposure/trapezoid AUC0-last
measuredParameter: AUC(0-t) (ng·h/mL)
Expressed in ng·h/mL, but write only the number.

Problem: // returns reported AUC(0-t) for input O=C(Nc1ccc2c(c1)B(O)OCC2)c1ccc(F)cc1C(F)(F)F [M1]
Solution: 22900

###

- Test system: P-gp (human MDR1)
- runDescription: in vitro
- Type: in vitro ADME, canine
- runConditions: dog, MDCK-MDR1; 3 μM test compound; without GF120918; read-out: MDCK-MCR1 Papp
measuredParameter: Papp at 1 h, 3 µM
In your response, put the unit directly after the numeric value.

{"smilesStructure": "CCc1ccc(C(=O)Nc2ccc3c(c2)B(O)OCC3)cc1", "assayResult": "80.3 ×10⁻⁶ cm/s"}
{"smilesStructure": "O=S(=O)(Nc1ccc2c(c1)B(O)OCC2)c1ccc(Cl)cc1", "assayResult": "64.9 ×10⁻⁶ cm/s"}
{"smilesStructure": "CC(C)c1ccc(S(=O)(=O)Nc2ccc3c(c2)B(O)OCC3)cc1", "assayResult": "64.8 ×10⁻⁶ cm/s"}
{"smilesStructure": "O=C(Nc1ccc2c(c1)B(O)OCC2)c1ccccc1Cl", "assayResult": "70.7 ×10⁻⁶ cm/s"}
{"smilesStructure": "O=C(Nc1ccc2c(c1)B(O)OCC2)c1ccc(Cl)cc1F", "assayResult": "80.4 ×10⁻⁶ cm/s"}
{"smilesStructure": "O=C(Nc1ccc2c(c1)B(O)OCC2)c1ccc(F)cc1C(F)(F)F", "assayResult": "55.7 ×10⁻⁶ cm/s"}
{"smilesStructure": "O=C(Nc1ccc2c(c1)B(O)OCC2)c1ccc(Cl)cc1Cl", "assayResult": "85.1 ×10⁻⁶ cm/s"}

Problem: Returns the measured Papp at 1 h, 3 µM for the input compound. Input: Cc1ccc(S(=O)(=O)Nc2ccc3c(c2)B(O)OCC3)cc1
Solution: 77.1 ×10⁻⁶ cm/s

###

- runDescription: Pharmacokinetic studies in mice (plasma and brain, IV and oral gavage)
- Format: in vivo, male CD-1 mice
- runConditions: mouse; plasma; oral 25 mg/kg; male CD-1 mice
measuredParameter: Cmax (ng/mL)
// units = ng/mL; emit number, no label

Problem: # input compound: O=C(Nc1ccc2c(c1)B(O)OCC2)c1ccc(F)cc1C(F)(F)F ; wanted: its Cmax
Solution: 2230

###

- runDescription: Pharmacokinetic studies in mice (plasma and brain, IV and oral gavage)
- Assay type: in vivo, male CD-1 mice
- runConditions: male, CD-1, mouse; brain; IV 2 mg/kg; read-out: Vdss
measuredParameter: Vd (L/kg)
Your answer should be a plain number; it is taken to be in L/kg.

Problem: Vd for O=C(Nc1ccc2c(c1)B(O)OCC2)c1ccc(F)cc1C(F)(F)F ?
Solution: 17.1

###

- runDescription: Pharmacokinetic studies in mice (plasma and brain, IV and oral gavage)
- Format: in vivo, male CD-1 mice
- runConditions: male, CD-1, mouse; plasma; IV 2 mg/kg; last = 24 hours; read-out: Exposure/trapezoid AUC0-last
measuredParameter: AUC(0-t) (ng·h/mL)
Give just the number in ng·h/mL; leave the unit off.

Problem: So what does the record say about AUC(0-t) for O=C(Nc1ccc2c(c1)B(O)OCC2)c1ccc(F)cc1C(F)(F)F ?
Solution: 1580

###

- runDescription: Pharmacokinetic studies in mice (plasma and brain, IV and oral gavage)
- Type: in vivo, male CD-1 mice
- runConditions: mouse; plasma; oral 50 mg/kg; male CD-1 mice
measuredParameter: Cmax

Problem: Which Cmax value is on record for O=C(Nc1ccc2c(c1)B(O)OCC2)c1ccc(F)cc1C(F)(F)F ?
Solution: 13400 ng/mL

###

- runDescription: Pharmacokinetic studies in mice (plasma and brain, IV and oral gavage)
- Format: in vivo, male CD-1 mice
- runConditions: male, CD-1, mouse; brain; oral 25 mg/kg; last = 12 hours; read-out: Exposure/trapezoid AUC0-last
measuredParameter: AUC(0-t) (ng·h/mL)
Unit ng·h/mL implied. Number only.

Problem: So what does the record say about AUC(0-t) for O=C(Nc1ccc2c(c1)B(O)OCC2)c1ccc(F)cc1C(F)(F)F ?
Solution: 14300

###

- runDescription: Pharmacokinetic studies in mice (plasma and brain, IV and oral gavage)
- Assay type: in vivo, male CD-1 mice
- runConditions: male, CD-1, mouse; plasma; IV 2 mg/kg; read-out: Vdss
measuredParameter: Vd (L/kg)
Numbers only here, please. The scale is L/kg.

Problem: What measured Vd goes with O=C(Nc1ccc2c(c1)B(O)OCC2)c1ccc(F)cc1C(F)(F)F ?
Solution: 5

###

- runDescription: Pharmacokinetic studies in mice (plasma and brain, IV and oral gavage)
- Format: in vivo, male CD-1 mice
- runConditions: male, CD-1, mouse; plasma; oral 50 mg/kg; read-out: Oral Clearance Cl/F (converted)
measuredParameter: CL/F (mL/min/kg)
State just the number; it will be interpreted in mL/min/kg.

Problem: Field request: CL/F | item: O=C(Nc1ccc2c(c1)B(O)OCC2)c1ccc(F)cc1C(F)(F)F [M1]
Solution: 10.2

###

- runDescription: Pharmacokinetic studies in mice (plasma and brain, IV and oral gavage)
- Type: in vivo, male CD-1 mice
- runConditions: male, CD-1, mouse; brain; oral 25 mg/kg; read-out: Oral Clearance Cl/F (converted)
measuredParameter: CL/F (mL/min/kg)
// note: answer is a bare numeric in mL/min/kg

Problem: Query: CL/F; subject: O=C(Nc1ccc2c(c1)B(O)OCC2)c1ccc(F)cc1C(F)(F)F
Solution: 29.2

###

- runDescription: Pharmacokinetic studies in mice (plasma and brain, IV and oral gavage)
- Type: in vivo, male CD-1 mice
- runConditions: male, CD-1, mouse; plasma; oral 25 mg/kg; read-out: t½ (converted)
measuredParameter: half-life (h)
Quick note: give the figure in h, leave out the unit.

Problem: Which half-life value belongs to O=C(Nc1ccc2c(c1)B(O)OCC2)c1ccc(F)cc1C(F)(F)F [M1] ?
Solution: 5.29

###

- runDescription: Pharmacokinetic studies in mice (plasma and brain, IV and oral gavage)
- Type: in vivo, male CD-1 mice
- runConditions: male, CD-1, mouse; plasma; IV 2 mg/kg; read-out: t½ (converted)
measuredParameter: half-life (h)
Quick note: give the figure in h, leave out the unit.

Problem: What value of half-life has been reported for the following molecule? O=C(Nc1ccc2c(c1)B(O)OCC2)c1ccc(F)cc1C(F)(F)F
Solution: 6.88

###

- runDescription: Pharmacokinetic studies in mice (plasma and brain, IV and oral gavage)
- Type: in vivo, male CD-1 mice
- runConditions: male, CD-1, mouse; brain; IV 2 mg/kg; read-out: Clearance Cl (converted)
measuredParameter: clearance (mL/min/kg)
Answer in mL/min/kg, number only, no unit symbol.

Problem: Quick one: clearance for O=C(Nc1ccc2c(c1)B(O)OCC2)c1ccc(F)cc1C(F)(F)F [M1] ?
Solution: 42.3
